Biological target: T1, rat GIP receptor (rGIPr) (Rattus norvegicus, UniProt P43219)
T1 construct: expressed in transfected cells; host or cells: HEK293s or CHO cells
T1 sequence (P43219 19-455): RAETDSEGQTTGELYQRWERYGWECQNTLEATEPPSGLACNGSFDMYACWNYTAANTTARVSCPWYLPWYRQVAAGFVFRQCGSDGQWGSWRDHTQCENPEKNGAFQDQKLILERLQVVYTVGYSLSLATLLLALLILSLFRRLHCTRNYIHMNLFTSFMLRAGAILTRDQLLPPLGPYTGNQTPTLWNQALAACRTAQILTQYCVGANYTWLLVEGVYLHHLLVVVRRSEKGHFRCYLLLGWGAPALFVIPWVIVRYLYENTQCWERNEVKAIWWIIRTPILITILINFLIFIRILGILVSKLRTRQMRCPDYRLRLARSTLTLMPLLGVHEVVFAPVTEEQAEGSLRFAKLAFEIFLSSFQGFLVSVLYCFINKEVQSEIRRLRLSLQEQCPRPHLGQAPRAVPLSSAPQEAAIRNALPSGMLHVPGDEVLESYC
Experiment: BSA-cAMP assay, cells expressing rat GIP receptor
Type: cell-based
Conditions: Batch 1; BSA-cAMP assay; read-out: rGIPr cAMP activity EC50
pEC50: −log10 of the molar value.
Param threshold (10) applies to pEC50; output True when value >= threshold, False when value < threshold.

MOLECULE	LABEL_VALUE
IP366 (protein) YSEGTFTSDYRMLKERQAIDEFIAWLLKGGAAAGGSGSTASSGSGSATGGGGAATHTCPPC	True
IP312 (protein) YSEGTFISDVSSYMERQAIDEFIAWLLKGGAAAGGSGSTASSGSGSATGGGGAATHTCPPC	False
IP401 (protein) YSEGTHTSDLSKLLERQAIDEFIAWLLKGGAAAGGSGSTASSGSGSATGGGGAATHTCPPC	True
IP301 (protein) YSEGTFTSDVSSYLEREAIDEFIAWLLKGGAAAGGSGSTASSGSGSATGGGGAATHTCPPC	False
IP378 (protein) YSEGTFTSLYRILLERQAIDEFIAWLLKGGAAAGGSGSTASSGSGSATGGGGAATHTCPPC	False
IP310 (protein) YSEGTFTSDVSSYMERQAIDEFIAWLLKGKAAAGGSGSTASSGSGSATGGGGAATHTCPPC	False
IP307 (protein) YSEGTFTSDVSSYMERQAIDEFIAWLLKQGAAAGGSGSTASSGSGSATGGGGAATHTCPPC	False
IP351 (protein) YSEGTFISDYSIAMDKIHQQDFVNWLLAQKPSSGAPPPSGGGGSGGGGSGGGGSGGGGSACPPC	True
IP364 (protein) YSEGTFTSDFSKLLERQAIDEFIAWLLKGGAAAGGSGSTASSGSGSATGGGGAATHTCPPC	True
IP321 (protein) YSEGTFISDYSIAMDKIHQQDFVNWLLAGGAAAGGSGSTASSGSGSATGGGGAATHTCPPC	True
IP367 (protein) YSEGTFTSDYRILKERQAIDEFIAWLLKGGAAAGGSGSTASSGSGSATGGGGAATHTCPPC	True
IP306 (protein) YSEGTFTSDYSKLLERQAIDEFIAWLLKGGAAAGGSGSTASSGSGSATGGGGAATHTCPPC	True
IP373 (protein) YSEGTHTSDFSKLLERQAIDEFIAWLLKGGAAAGGSGSTASSGSGSATGGGGAATHTCPPC	True
IP309 (protein) YSEGTFISDVSSYLERQAIDEFIAWLLKGGAAAGGSGSTASSGSGSATGGGGAATHTCPPC	False
